Molecular target: clathrin adaptor protein AP2 (AP2 μ1 subunit as printed) (rat) (UniProt P84092)
Sequence (P84092 whole entry): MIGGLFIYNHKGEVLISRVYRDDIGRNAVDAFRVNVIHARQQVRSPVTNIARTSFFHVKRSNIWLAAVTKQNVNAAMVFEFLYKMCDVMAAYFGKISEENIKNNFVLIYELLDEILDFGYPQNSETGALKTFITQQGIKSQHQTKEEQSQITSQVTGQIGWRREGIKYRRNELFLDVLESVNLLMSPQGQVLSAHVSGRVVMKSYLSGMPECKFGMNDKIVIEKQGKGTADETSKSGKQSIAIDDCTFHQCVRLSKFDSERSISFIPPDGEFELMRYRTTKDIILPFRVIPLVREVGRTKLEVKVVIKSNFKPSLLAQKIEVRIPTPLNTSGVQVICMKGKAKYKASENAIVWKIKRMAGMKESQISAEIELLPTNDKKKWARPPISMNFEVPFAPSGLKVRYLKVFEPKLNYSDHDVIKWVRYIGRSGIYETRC
Test: ITC; VP-ITC, 25 °C; 50 mM Tris pH 7.8, 100 mM NaCl, 1 mM EDTA, 1 mM DTT; γ2 subunit protein or peptide (100–200 μM) injected into GABARAP, GABARAPL1 or AP2 (10–20 μM) in the cell; one-site binding model
parameter: Kd (nM)
I only need the number, in nM, no unit after it.

Measured Kd of GABAAR γ2 subunit GIM (GABARAP interacting motif, 398–415) (from UniProt P22723-2 398-415) (peptide) : 250

----------
Target: GABAAR-associated protein (GABARAP) (mouse)
Experiment: ITC; VP-ITC, 25 °C; 50 mM Tris pH 7.8, 100 mM NaCl, 1 mM EDTA, 1 mM DTT; γ2 subunit protein or peptide (100–200 μM) injected into GABARAP, GABARAPL1 or AP2 (10–20 μM) in the cell; one-site binding model
parameter: pKd
Lab note — pKd values are minus log10 of concentrations in M.

The substance GABAAR γ2 subunit GIM (GABARAP interacting motif, 398–415) (from UniProt P22723-2 398-415) (peptide) on GABAAR-associated protein (GABARAP) (mouse): pKd was 5.38

Attribution: paper PMC7803741
